B1: Pistol ribozyme (parent)
chain: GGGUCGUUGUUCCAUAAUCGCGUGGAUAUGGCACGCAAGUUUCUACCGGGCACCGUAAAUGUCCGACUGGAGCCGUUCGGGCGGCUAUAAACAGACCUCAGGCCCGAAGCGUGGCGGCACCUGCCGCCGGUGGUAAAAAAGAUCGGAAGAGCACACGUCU

# Variants of: B1
# Procedure Details: aptazyme ON/OFF ratio, guanine; higher = stronger switching; co-transcriptional cleavage with and without guanine
Measurement Label: aptazyme ON/OFF ratio
Answer with the value's number alone.

INSERT INTO assay_data (change, reported_value) VALUES
  ('U8C G9U U10G U11C C12U C13A', 1.19),
  ('U8G G9A U11A C12U', 1.43),
  ('U7C U8C G9A U10G U11A C12A C13A', 1.17),
  ('U7A G9U', 1.86);

// aptazyme ON/OFF ratio lookup, variant = U7G U8G U10C C13A , result: 1.33

The recorded aptazyme ON/OFF ratio for entry U7A U8C G9U U10G U11G C12A C13U equals 1.37

Value of aptazyme ON/OFF ratio reported for the variant U7G G9U U11C C12U C13G is 1.3

The reported value for U7G U8A G9A U10C U11C C13A in terms of aptazyme ON/OFF ratio is 1.04

Per the record, U7A G9A U10G U11A C13G has aptazyme ON/OFF ratio of 1.03
